Assignment: determine reported Sox 17 Intensity average for the given molecules.
Test system: H1 or H9 human embryonic stem cells
PROTOCOL NOTES: Activin A bioassay: differentiation of human embryonic stem cells to definitive endoderm, cell number and SOX17 intensity by high content analysis (96-well, four days);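 note: total fluorescence of the cell multiplied by cell area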
Assay type: cell-based
CONDITION DETAILS: supernatant concentration 1x, assay dilution 1:20

[[record]]
molecule = "ACTN43: activin A variant peptide, SEQ ID 44 (protein) GLECDGKVNYCCKKQDFVSFKDIGWNDWIIAPSGYHANRCDGKCPSHIAGTSGSSLSFHSTVINHYRMRGHSPFSDMGACCVPTKLRPMSMLYYDDGQNIIKKDIQNMIVEECGCS"
readout_kind = "Sox 17 Intensity average"
experimental_value = "1.85E+04"

[[record]]
molecule = "ACTN55: activin A variant peptide, SEQ ID 56 (protein) GLECDGKVNICCKKQSFGQTKDIGWNDWIIAPSGYHGGGCTGECPSHIAGTSGSSLSFHSTVINHYRMRGHSPWANLKSCCSPTKLRPMSMLYYDDGQNIIKKDIQGMVVEECGCT"
readout_kind = "Sox 17 Intensity average"
experimental_value = "3.41E+05"


Next up:
// Sox 17 Intensity average value for ACTN4: activin A variant peptide, SEQ ID 5 (protein) GLECDGKVNLCCKKQLFVSFKDIGWNDWIIAPSGYHANHCSGLCPSHIAGTSGSSLSFHSTVINHYRMRGHSPFSDMGACCVPTKLRPMSMLYYDDGQNIIKKDIQNMIVEECGCS : 9.099E+07
